Origin of the recorded values: patent US20220177581A1

Molecular target: T1, CD22 (antigen in the Biacore assay) (human, UniProt P20273 20-687, limits assumed)
T1 sequence: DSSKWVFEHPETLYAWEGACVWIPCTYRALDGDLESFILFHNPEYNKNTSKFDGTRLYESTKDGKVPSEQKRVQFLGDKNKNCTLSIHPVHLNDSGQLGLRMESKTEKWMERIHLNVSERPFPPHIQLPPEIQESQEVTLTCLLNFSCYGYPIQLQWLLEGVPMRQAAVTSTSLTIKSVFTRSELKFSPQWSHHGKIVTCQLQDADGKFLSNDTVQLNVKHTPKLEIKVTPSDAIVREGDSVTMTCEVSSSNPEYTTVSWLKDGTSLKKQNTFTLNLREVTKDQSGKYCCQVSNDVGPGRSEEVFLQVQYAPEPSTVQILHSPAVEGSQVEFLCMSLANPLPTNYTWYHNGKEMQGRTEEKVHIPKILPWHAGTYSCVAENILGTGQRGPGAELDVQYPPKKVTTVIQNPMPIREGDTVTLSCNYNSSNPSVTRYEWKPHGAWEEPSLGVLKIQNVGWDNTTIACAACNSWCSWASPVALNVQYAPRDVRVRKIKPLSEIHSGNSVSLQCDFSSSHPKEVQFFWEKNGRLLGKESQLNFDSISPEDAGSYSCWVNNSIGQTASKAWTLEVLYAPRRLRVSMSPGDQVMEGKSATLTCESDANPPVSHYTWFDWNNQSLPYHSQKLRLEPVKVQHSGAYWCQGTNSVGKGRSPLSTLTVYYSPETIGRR
Assay: SPR (Biacore) at 37° C
readoutLabel: koff (s⁻¹)
Unit s⁻¹ implied. Number only.

- binder: "humanized LL2 L1 + H9 (antibody, V domains shown, Human IgG1 frameworks; also called H9L1) VH: QVQLVQSGAEVKKPGASVKVSCKASGYTFTSYWLHWVRQAPGQRLEWIGYINPRNDYTEYNQNFKDRVTITADTSASTAYMELSSLRSEDTAVYYCARRDITTFYWGQGTTLTVSS VL: DIVLTQSPDSLAVSAGERVTMNCKSSQSVLYSANHKNYLAWYQQKPGQPPKLLIYWASTRESGVPDRFSGSGSGTDFTLTISSVQAEDVAIYYCHQYLSSWTFGGGTKLEIK"
  quantityUnit: "s⁻¹"
  koff: "3.3e-06"

Okay, next one:
I have this binder here, humanized LL2 L1 + H12 (antibody, V domains shown, Human IgG1 frameworks; also called H12L1; VL1-VH12) VH: QVQLQQSGAEVKKPGASVKMSCKASGYTFTSYWLHWVRQAPGQRLEWMGYINPRNDYTEYNQNFKDRVTITADTSASTAYMELSSLRSEDTAVYYCARRDITTFYWGQGTTLTVSS VL: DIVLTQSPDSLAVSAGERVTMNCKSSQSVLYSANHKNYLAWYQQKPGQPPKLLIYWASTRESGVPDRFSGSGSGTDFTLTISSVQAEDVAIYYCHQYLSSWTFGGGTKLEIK , and I need its recorded koff. 5.88e-07
